Source listed as the supplement of paper PMC12458215.

# plasma membrane surface immunostaining intensity per entry
Test system: HEK293T
ASSAY_NOTES: plasma membrane surface immunostaining intensity (anti-HA, deep receptor scanning) (arbitrary fluorescence units); higher = higher plasma membrane expression
CONDITION_NOTES: GPCR class: A (Olfactory)

Below, each entry is followed by its recorded plasma membrane surface immunostaining intensity result.
MASPSNDSTAPVSEFLLICFPNFQSWQHWLSLPLSLLFLLAMGANTTLLITIQLEASLHQPLYYLLSLLSLLDIVLCLTVIPKVLAIFWFDLRSISFPACFLQMFIMNSFLTMESCTFMVMAYDRYVAICHPLRYPSIITDQFVARAVVFVIARNAFVSLPVPMLSARLRYCAGNIIKNCICSNLSVSKLSCDDITFNQLYQFVAGWTLLGSDLILIVISYSFILKVVLRIKAEGAVAKALSTCGSHFILILFFSTVLLVLVITNLARKRIPPDVPILLNILHHLIPPALNPIVYGVRTKEIKQGIQNLLKRL [OR56A4]; 419
MENVTTMNEFLLLGLTGVQELQPFFFGIFLIIYLINLIGNGSILVMVVLEPQLHSPMYFFLGNLSCLDISYSSVTLPKLLVNLVCSRRAISFLGCITQLHFFHFLGSTEAILLAIMAFDRFVAICNPLRYTVIMNPQVCILLAAAAWLISFFYALMHSVMTAHLSFCGSQKLNHFFYDVKPLLELACSDTLLNQWLLSIVTGSISMGAFFLTLLSCFYVIGFLLFKNRSCRILHKALSTCASHFMVVCLFYGPVGFTYIRPASATSMIQDRIMAIMYSAVTPVLNPLIYTLRNKEVMMALKKIFGRKLFKDWQQHH [OR12D3]; 148

Okay, now this sequence:
IN: Requested read-out plasma membrane surface immunostaining intensity, target or system HEK293T, entry MLGLNHTSMSEFILVGFSAFPHLQLMLFLLFLLMYLFTLLGNLLIMATVWSERSLHTPMYLFLCVLSVSEILYTVAIIPRMLADLLSTQRSIAFLACASQMFFSFSFGFTHSFLLTVMGYDRYVAICHPLRYNVLMSPRGCACLVGCSWAGGSVMGMVVTSAIFQLTFCGSHEIQHFLCHVPPLLKLACGNNVPAVALGVGLVCIMALLGCFLLILLSYAFIVADILKIPSAEGRNKAFSTCASHLIVVIVHYGFASVIYLKPKGPHSQEGDTLMATTYAVLTPFLSPIIFSLRNKELKVAMKRTFLSTLYSSGT [OR10H2]
OUT: 112
